target: Focal adhesion kinase 1 (Homo sapiens) (UniProt Q05397); assay: small-molecule microarray binders of FAK, primary screen, biochemical, 635/667 nm fluorescence, BSA, DTT (AID 1130); conditions: PTK2 binding, 635 nm fluorescence, higher = more signal;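 note: composite of spot emission at 667 nm and signal to noise over triplicate slides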
Sequence (Q05397 whole entry, looked up): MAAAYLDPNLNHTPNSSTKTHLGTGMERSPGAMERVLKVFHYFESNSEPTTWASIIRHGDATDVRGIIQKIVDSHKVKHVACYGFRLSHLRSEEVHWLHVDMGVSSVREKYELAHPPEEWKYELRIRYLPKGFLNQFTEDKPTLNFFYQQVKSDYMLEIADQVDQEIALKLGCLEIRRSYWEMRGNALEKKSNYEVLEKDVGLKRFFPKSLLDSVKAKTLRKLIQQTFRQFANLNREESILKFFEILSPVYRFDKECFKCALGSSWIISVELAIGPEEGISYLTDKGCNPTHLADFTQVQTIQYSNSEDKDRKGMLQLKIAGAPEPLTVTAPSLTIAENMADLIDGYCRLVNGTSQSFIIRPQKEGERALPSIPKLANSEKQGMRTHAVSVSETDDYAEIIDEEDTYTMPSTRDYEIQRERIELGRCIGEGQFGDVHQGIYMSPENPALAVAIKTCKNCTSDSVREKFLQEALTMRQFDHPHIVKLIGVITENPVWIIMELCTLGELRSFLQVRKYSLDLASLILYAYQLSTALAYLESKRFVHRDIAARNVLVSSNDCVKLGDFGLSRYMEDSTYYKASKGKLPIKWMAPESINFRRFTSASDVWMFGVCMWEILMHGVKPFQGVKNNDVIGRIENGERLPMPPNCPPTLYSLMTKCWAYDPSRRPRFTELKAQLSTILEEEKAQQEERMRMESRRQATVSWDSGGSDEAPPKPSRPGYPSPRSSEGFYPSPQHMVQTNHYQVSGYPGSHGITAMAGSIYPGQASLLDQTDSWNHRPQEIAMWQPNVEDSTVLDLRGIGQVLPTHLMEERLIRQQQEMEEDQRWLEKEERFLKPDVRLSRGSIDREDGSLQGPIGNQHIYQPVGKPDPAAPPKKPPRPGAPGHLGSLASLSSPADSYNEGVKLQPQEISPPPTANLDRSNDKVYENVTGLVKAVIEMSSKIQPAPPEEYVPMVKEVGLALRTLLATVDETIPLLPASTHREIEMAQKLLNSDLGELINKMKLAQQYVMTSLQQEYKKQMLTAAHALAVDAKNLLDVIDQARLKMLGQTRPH
recorded_endpoint: composite z-score
Enter a number only.

// C=CC[C@@H]1C=C[C@H](ON=C[C@@H](NS(=O)(=O)c2ccc(C)cc2)[C@H](C)C=CCC(=O)OC)[C@@H](CO)O1 : composite z-score value = -0.0954

* * *

biological target: Fibroblast growth factor 2 (Homo sapiens); test: FGF2 binders on small-molecule microarrays, primary screen, biochemical, small-molecule microarray, 635/667 nm fluorescence (AID 1133); conditions: small-molecule microarray binding, FGF2, fluorescence 635/667; higher = more signal
Recorded composite z-score split into classes bucket A: < 0.1; bucket B: ≥ 0.1 and < 0.6; bucket C: ≥ 0.6

{"compound": "COC(=O)[C@H](C)NC(=O)CCC1CC(OC(=O)NCc2cccc3ccccc23)CC2(CCCC(COC(=O)NCCc3ccccc3OC)O2)O1 (stereo not given in full)", "test_system": "Fibroblast growth factor 2 (Homo sapiens)", "class_assignment": "bucket B"}
{"compound": "CC(CCN1CCCc2nc(C)c(C)cc21)=NO[C@H](C)c1cn([C@@H]2COC[C@H]2O)nn1", "test_system": "Fibroblast growth factor 2 (Homo sapiens)", "class_assignment": "bucket C"}
{"compound": "COC(=O)[C@@H]1CC[C@H](C)[C@@H](c2ccc(Br)cc2)N1C(=O)C(F)(F)F", "test_system": "Fibroblast growth factor 2 (Homo sapiens)", "class_assignment": "bucket A"}
{"compound": "CON=C[C@@H](OC)[C@H](C)C=CCC(=O)OC", "test_system": "Fibroblast growth factor 2 (Homo sapiens)", "class_assignment": "bucket A"}
{"compound": "CC(C)(C)N1C(=O)[C@H]2[C@H]3[C@H](O)[C@H](O)CC(=NOC[C@@H](O)COCc4ccco4)[C@@H]3CC[C@H]2C1=O", "test_system": "Fibroblast growth factor 2 (Homo sapiens)", "class_assignment": "bucket A"}

The entry to classify is CO[C@H]1COC(=O)CCC[C@H](C)[C@H](OC)COC(=O)CC=C[C@@H]1C ; which class holds it?
bucket C

Band for the recorded composite z-score of C[C@H]1CC[C@H]2C(=O)OC(COc3ccc(C(C)(C)C)cc3)CN2[C@@H]1c1ccc(Br)cc1 (stereo not given in full) ?
bucket B

Dear colleague, I would appreciate it if you could identify the bin for COc1ccc(O[C@H]2C=C[C@@H](c3ccccc3)O[C@@H]2CON=C2c3cc(OC)ccc3O[C@H](c3cccc(OC)c3)[C@H]2O)cc1 and reply at your convenience.
bucket C

# classify by composite z-score band: CC(C)=CCCC(C)=CCON=C1C[C@@H](O)[C@@H](O)[C@@H]2[C@@H]3C(=O)N(Cc4ccc5c(c4)OCO5)C(=O)[C@@H]3CC[C@@H]12
bucket B
